targetSystem: T1, human CX3CR1 T280M (human, UniProt P49238 1-355)
T1 construct: Transiently transfected in HEK293T cells (pcDNA3.1); also called huCX3CR1 variant T280M (Rs3732378)
T1 sequence: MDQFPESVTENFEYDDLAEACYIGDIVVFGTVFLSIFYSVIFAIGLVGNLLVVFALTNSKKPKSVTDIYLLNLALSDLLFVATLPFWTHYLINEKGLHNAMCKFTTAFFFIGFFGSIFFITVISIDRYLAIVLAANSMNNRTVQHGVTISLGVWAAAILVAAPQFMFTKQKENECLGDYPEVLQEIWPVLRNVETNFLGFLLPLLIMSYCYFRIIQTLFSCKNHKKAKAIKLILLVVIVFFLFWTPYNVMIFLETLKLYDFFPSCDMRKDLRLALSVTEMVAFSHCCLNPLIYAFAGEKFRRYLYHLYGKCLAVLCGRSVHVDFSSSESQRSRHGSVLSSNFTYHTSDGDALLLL
protocolNotes: flow cytometry on transiently transfected HEK293T cells, human CX3CR1 T280M
pEC50: −log10 of the molar value.
// values below are reported pEC50
measurementLabel: pEC50

>>> value("A041600034 (VHH, Trivalent ISVD construct; also called 54A12_SO (E1D)-9GS-ALB23002-9GS-66B02_SO-A) DVQLVESGGGSVQPGGSLRLSCAASGSIFSSTAMAWYRQAPGKQRDLVAVISTVGITKYADSVKGRFTISRDNAKNTVYLQMNSLRPEDTALYYCTSDARRGWDTRYWGQGTLVTVSSGGGGSGGGSEVQLVESGGGVVQPGGSLRLSCAASGFTFRSFGMSWVRQAPGKGPEWVSSISGSGSDTLYADSVKGRFTISRDNSKNTLYLQMNSLRPEDTALYYCTIGGSLSRSSQGTLVTVSSGGGGSGGGSEVQLVESGGGSVQPGGSLRLSCAASGSIFSSTAMAWYRQAPGKRRDLVAAINTVGVTKYADSVKGRFTISRDNAKNTVYLQMNSLRPEDTALYYCTSDPRRGWDTRYWGQGTLVTVSSA")
10.13
>>> value("A041600025 (VHH, Trivalent ISVD construct (two anti-CX3CR1 ISVDs, one anti-albumin ISVD), C-terminal alanine included in the entry; also called 54A12_SO (E1D)-9GS-ALB23002-9GS-54A12_SO-A) DVQLVESGGGSVQPGGSLRLSCAASGSIFSSTAMAWYRQAPGKQRDLVAVISTVGITKYADSVKGRFTISRDNAKNTVYLQMNSLRPEDTALYYCTSDARRGWDTRYWGQGTLVTVSSGGGGSGGGSEVQLVESGGGVVQPGGSLRLSCAASGFTFRSFGMSWVRQAPGKGPEWVSSISGSGSDTLYADSVKGRFTISRDNSKNTLYLQMNSLRPEDTALYYCTIGGSLSRSSQGTLVTVSSGGGGSGGGSEVQLVESGGGSVQPGGSLRLSCAASGSIFSSTAMAWYRQAPGKQRDLVAVISTVGITKYADSVKGRFTISRDNAKNTVYLQMNSLRPEDTALYYCTSDARRGWDTRYWGQGTLVTVSSA")
9.80
>>> value("A041600085 (VHH, also called 307-9GS-ALB23002-9GS-307 (D1E)-A) DVQLVESGGGLVQPGGSLRLSCAASGSIFSSTAMAWYRQAPGKRRDLVAAISTVGVTKYADSVKGRFTISRDNSKNTVYLQMNSLRPEDTAVYYCTSDPRRGWDTRYWGQGTLVTVSSGGGGSGGGSEVQLVESGGGVVQPGGSLRLSCAASGFTFRSFGMSWVRQAPGKGPEWVSSISGSGSDTLYADSVKGRFTISRDNSKNTLYLQMNSLRPEDTALYYCTIGGSLSRSSQGTLVTVSSGGGGSGGGSEVQLVESGGGLVQPGGSLRLSCAASGSIFSSTAMAWYRQAPGKRRDLVAAISTVGVTKYADSVKGRFTISRDNSKNTVYLQMNSLRPEDTAVYYCTSDPRRGWDTRYWGQGTLVTVSSA")
9.77

Taken from patent US20240117038A1.
